Source: paper PMC9069370

Test system: HMLER
Test: cells
Format: cell-based, human
Conditions: 72 h
Peptide text beside a SMILES is read from it.
property name: pIC50
// pIC50 here means minus log10 of the molar concentration (mol/L)

CC(C)C[C@H](NC(=O)CN)C(=O)N[C@@H](CC(C)C)C(=O)N[C@@H](CC(=O)O)C(=O)N[C@@H](CC(C)C)C(=O)N[C@@H](CC(C)C)C(=O)N[C@@H](Cc1c[nH]cn1)C(=O)N[C@@H](CC(C)C)C(=O)N[C@@H](CC(C)C)C(=O)N[C@@H](CC(C)C)C(=O)N[C@@H](CCC(=O)O)C(=O)N[C@@H](C)C(=O)N[C@@H](C)C(=O)NCC(=O)N[C@@H](Cc1c[nH]c2ccccc12)C(N)=O [DHE] (H-GLLDLLHLLLEAAGW-NH2) :: 5.43
CC(C)C[C@H](NC(=O)CN)C(=O)N[C@@H](CC(C)C)C(=O)N[C@@H](Cc1c[nH]cn1)C(=O)N[C@@H](CC(C)C)C(=O)N[C@@H](CC(C)C)C(=O)N[C@@H](Cc1c[nH]cn1)C(=O)N[C@@H](CC(C)C)C(=O)N[C@@H](CC(C)C)C(=O)N[C@@H](CC(C)C)C(=O)N[C@@H](Cc1c[nH]cn1)C(=O)N[C@@H](C)C(=O)N[C@@H](C)C(=O)NCC(=O)N[C@@H](Cc1c[nH]c2ccccc12)C(N)=O [HHH] (H-GLLHLLHLLLHAAGW-NH2) :: 4.68

We now examine a further molecule.
Inquiry: Please provide the recorded pIC50 for CC(C)C[C@H](NC(=O)CN)C(=O)N[C@@H](CC(C)C)C(=O)N[C@@H](Cc1c[nH]cn1)C(=O)N[C@@H](CC(C)C)C(=O)N[C@@H](CC(C)C)C(=O)N[C@@H](CCCCN)C(=O)N[C@@H](CC(C)C)C(=O)N[C@@H](CC(C)C)C(=O)N[C@@H](CC(C)C)C(=O)N[C@@H](CCCCN)C(=O)N[C@@H](C)C(=O)N[C@@H](C)C(=O)NCC(=O)N[C@@H](Cc1c[nH]c2ccccc12)C(N)=O [HKK] (H-GLLHLLKLLLKAAGW-NH2) , tested on HMLER.
Reply text: 5.47

###

Experiment: ANTS/DPX liposome leakage assay
Details: 0.5 mM vesicles, peptide 0-20 µM, 3 h incubation, HCl-adjusted PBS 1X pH 4.8; lipid per peptide
Peptide text beside a SMILES is read from it.
property name: Peptide Concentration-induced 50 % ANTS/DPX leakage at pH 4.8 (L/P), 3POPC/1POPG Vesicle
Kindly answer with a numeric value in L/P, unit omitted.

The following compounds have reported results that may help.
CC(C)C[C@H](NC(=O)CN)C(=O)N[C@@H](CC(C)C)C(=O)N[C@@H](Cc1c[nH]cn1)C(=O)N[C@@H](CC(C)C)C(=O)N[C@@H](CC(C)C)C(=O)N[C@@H](CCCCN)C(=O)N[C@@H](CC(C)C)C(=O)N[C@@H](CC(C)C)C(=O)N[C@@H](CC(C)C)C(=O)N[C@@H](CCCCN)C(=O)N[C@@H](C)C(=O)N[C@@H](C)C(=O)NCC(=O)N[C@@H](Cc1c[nH]c2ccccc12)C(N)=O [HKK] (H-GLLHLLKLLLKAAGW-NH2) :: 106
CC(C)C[C@H](NC(=O)CN)C(=O)N[C@@H](CC(C)C)C(=O)N[C@@H](CCC(=O)O)C(=O)N[C@@H](CC(C)C)C(=O)N[C@@H](CC(C)C)C(=O)N[C@@H](CCC(=O)O)C(=O)N[C@@H](CC(C)C)C(=O)N[C@@H](CC(C)C)C(=O)N[C@@H](CC(C)C)C(=O)N[C@@H](Cc1c[nH]cn1)C(=O)N[C@@H](C)C(=O)N[C@@H](C)C(=O)NCC(=O)N[C@@H](Cc1c[nH]c2ccccc12)C(N)=O [EEH] (H-GLLELLELLLHAAGW-NH2) :: 168
CC(C)C[C@H](NC(=O)CN)C(=O)N[C@@H](CC(C)C)C(=O)N[C@@H](CC(=O)O)C(=O)N[C@@H](CC(C)C)C(=O)N[C@@H](CC(C)C)C(=O)N[C@@H](CCCCN)C(=O)N[C@@H](CC(C)C)C(=O)N[C@@H](CC(C)C)C(=O)N[C@@H](CC(C)C)C(=O)N[C@@H](Cc1c[nH]cn1)C(=O)N[C@@H](C)C(=O)N[C@@H](C)C(=O)NCC(=O)N[C@@H](Cc1c[nH]c2ccccc12)C(N)=O [DKH] (H-GLLDLLKLLLHAAGW-NH2) :: 58
CC(C)C[C@H](NC(=O)CN)C(=O)N[C@@H](CC(C)C)C(=O)N[C@@H](CC(=O)O)C(=O)N[C@@H](CC(C)C)C(=O)N[C@@H](CC(C)C)C(=O)N[C@@H](CCCCN)C(=O)N[C@@H](CC(C)C)C(=O)N[C@@H](CC(C)C)C(=O)N[C@@H](CC(C)C)C(=O)N[C@@H](CCCCN)C(=O)N[C@@H](C)C(=O)N[C@@H](C)C(=O)NCC(=O)N[C@@H](Cc1c[nH]c2ccccc12)C(N)=O [DKK] (H-GLLDLLKLLLKAAGW-NH2) :: 227
CC(C)C[C@H](NC(=O)CN)C(=O)N[C@@H](CC(C)C)C(=O)N[C@@H](CCCCN)C(=O)N[C@@H](CC(C)C)C(=O)N[C@@H](CC(C)C)C(=O)N[C@@H](CCCCN)C(=O)N[C@@H](CC(C)C)C(=O)N[C@@H](CC(C)C)C(=O)N[C@@H](CC(C)C)C(=O)N[C@@H](Cc1c[nH]cn1)C(=O)N[C@@H](C)C(=O)N[C@@H](C)C(=O)NCC(=O)N[C@@H](Cc1c[nH]c2ccccc12)C(N)=O [KKH] (H-GLLKLLKLLLHAAGW-NH2) :: 49
CC(C)C[C@H](NC(=O)CN)C(=O)N[C@@H](CC(C)C)C(=O)N[C@@H](Cc1c[nH]cn1)C(=O)N[C@@H](CC(C)C)C(=O)N[C@@H](CC(C)C)C(=O)N[C@@H](CCCCN)C(=O)N[C@@H](CC(C)C)C(=O)N[C@@H](CC(C)C)C(=O)N[C@@H](CC(C)C)C(=O)N[C@@H](CCC(=O)O)C(=O)N[C@@H](C)C(=O)N[C@@H](C)C(=O)NCC(=O)N[C@@H](Cc1c[nH]c2ccccc12)C(N)=O [HKE] (H-GLLHLLKLLLEAAGW-NH2) :: 94
CC(C)C[C@H](NC(=O)CN)C(=O)N[C@@H](CC(C)C)C(=O)N[C@@H](CC(=O)O)C(=O)N[C@@H](CC(C)C)C(=O)N[C@@H](CC(C)C)C(=O)N[C@@H](CCC(=O)O)C(=O)N[C@@H](CC(C)C)C(=O)N[C@@H](CC(C)C)C(=O)N[C@@H](CC(C)C)C(=O)N[C@@H](CCC(=O)O)C(=O)N[C@@H](C)C(=O)N[C@@H](C)C(=O)NCC(=O)N[C@@H](Cc1c[nH]c2ccccc12)C(N)=O [DEE] (H-GLLDLLELLLEAAGW-NH2) :: 164
CC(C)C[C@H](NC(=O)CN)C(=O)N[C@@H](CC(C)C)C(=O)N[C@@H](Cc1c[nH]cn1)C(=O)N[C@@H](CC(C)C)C(=O)N[C@@H](CC(C)C)C(=O)N[C@@H](CCCCN)C(=O)N[C@@H](CC(C)C)C(=O)N[C@@H](CC(C)C)C(=O)N[C@@H](CC(C)C)C(=O)N[C@@H](Cc1c[nH]cn1)C(=O)N[C@@H](C)C(=O)N[C@@H](C)C(=O)NCC(=O)N[C@@H](Cc1c[nH]c2ccccc12)C(N)=O [HKH] (H-GLLHLLKLLLHAAGW-NH2) :: 47

Pending compound:
Inquiry: Name the recorded Peptide Concentration-induced 50 % ANTS/DPX leakage at pH 4.8 (L/P), 3POPC/1POPG Vesicle for CC(C)C[C@H](NC(=O)CN)C(=O)N[C@@H](CC(C)C)C(=O)N[C@@H](Cc1c[nH]cn1)C(=O)N[C@@H](CC(C)C)C(=O)N[C@@H](CC(C)C)C(=O)N[C@@H](CCC(=O)O)C(=O)N[C@@H](CC(C)C)C(=O)N[C@@H](CC(C)C)C(=O)N[C@@H](CC(C)C)C(=O)N[C@@H](Cc1c[nH]cn1)C(=O)N[C@@H](C)C(=O)N[C@@H](C)C(=O)NCC(=O)N[C@@H](Cc1c[nH]c2ccccc12)C(N)=O [HEH] (H-GLLHLLELLLHAAGW-NH2) .
Reply text: 24

###

Assay: ANTS/DPX liposome leakage assay
Settings: 0.5 mM vesicles, peptide 0-20 µM, 3 h incubation, HCl-adjusted PBS 1X pH 4.8; lipid per peptide
Peptide text beside a SMILES is read from it.
property name: Peptide Concentration-induced 50 % ANTS/DPX leakage at pH 4.8 (L/P), 3POPC/1POPG Vesicle
Please provide the amount together with its unit, number first.

Guide cases for Peptide Concentration-induced 50 % ANTS/DPX leakage at pH 4.8 (L/P), 3POPC/1POPG Vesicle, answers given:
CC(C)C[C@H](NC(=O)CN)C(=O)N[C@@H](CC(C)C)C(=O)N[C@@H](CCC(=O)O)C(=O)N[C@@H](CC(C)C)C(=O)N[C@@H](CC(C)C)C(=O)N[C@@H](CCCCN)C(=O)N[C@@H](CC(C)C)C(=O)N[C@@H](CC(C)C)C(=O)N[C@@H](CC(C)C)C(=O)N[C@@H](Cc1c[nH]cn1)C(=O)N[C@@H](C)C(=O)N[C@@H](C)C(=O)NCC(=O)N[C@@H](Cc1c[nH]c2ccccc12)C(N)=O [EKH] (H-GLLELLKLLLHAAGW-NH2) :: 88 L/P
CC(C)C[C@H](NC(=O)CN)C(=O)N[C@@H](CC(C)C)C(=O)N[C@@H](Cc1c[nH]cn1)C(=O)N[C@@H](CC(C)C)C(=O)N[C@@H](CC(C)C)C(=O)N[C@@H](CCC(=O)O)C(=O)N[C@@H](CC(C)C)C(=O)N[C@@H](CC(C)C)C(=O)N[C@@H](CC(C)C)C(=O)N[C@@H](CCCCN)C(=O)N[C@@H](C)C(=O)N[C@@H](C)C(=O)NCC(=O)N[C@@H](Cc1c[nH]c2ccccc12)C(N)=O [HEK] (H-GLLHLLELLLKAAGW-NH2) :: 411 L/P

Proceed to the following item.
Inquiry: Would you kindly share the measured Peptide Concentration-induced 50 % ANTS/DPX leakage at pH 4.8 (L/P), 3POPC/1POPG Vesicle for CC(C)C[C@H](NC(=O)CN)C(=O)N[C@@H](CC(C)C)C(=O)N[C@@H](CCC(=O)O)C(=O)N[C@@H](CC(C)C)C(=O)N[C@@H](CC(C)C)C(=O)N[C@@H](Cc1c[nH]cn1)C(=O)N[C@@H](CC(C)C)C(=O)N[C@@H](CC(C)C)C(=O)N[C@@H](CC(C)C)C(=O)N[C@@H](CCCCN)C(=O)N[C@@H](C)C(=O)N[C@@H](C)C(=O)NCC(=O)N[C@@H](Cc1c[nH]c2ccccc12)C(N)=O [EHK] (H-GLLELLHLLLKAAGW-NH2) ?
Reply text: 117 L/P
